# testSummary: in vitro
# conditionsUsed: human, microsomes, pH 7.4
Some compounds, each annotated with its measured metabolised at 2 h, 5 µM.

{"compound": "NC(=O)C(c1ccccc1)(c1ccc(F)cc1)c1ccc(F)cc1 [Compound 3, bis(4-fluorophenyl)phenylacetamide]", "metabolised at 2 h, 5 µM": "24%"}
{"compound": "NC(=O)C(c1ccccc1)(c1ccccc1)c1ccc(F)cc1F [Compound 8]", "metabolised at 2 h, 5 µM": "61%"}
{"compound": "NC(=O)C(c1ccc(F)cc1)(c1ccc(F)cc1)c1ccccc1F [Compound 5]", "metabolised at 2 h, 5 µM": "29%"}
{"compound": "NC(=O)C(c1ccccc1)(c1ccccc1)c1ccccc1 [Compound 20, reference compound]", "metabolised at 2 h, 5 µM": "87%"}
{"compound": "NC(=O)C(c1ccccc1)(c1ccccc1)c1ccc(F)c(F)c1 [Compound 7]", "metabolised at 2 h, 5 µM": "85%"}
{"compound": "NC(=O)C(c1cccc(F)c1)(c1cccc(F)c1)c1cccc(F)c1 [Compound 17]", "metabolised at 2 h, 5 µM": "82%"}
{"compound": "NC(=O)C(c1ccccc1)(c1cccc(F)c1)c1cccc(F)c1 [Compound 9]", "metabolised at 2 h, 5 µM": "97%"}
